# systemName: Bromodomain-containing protein 4 (Homo sapiens)
# procedureText: Inhibition of BRD4 BD1 (unknown origin)
pIC50: −log10 of the molar value.
endpoint: pIC50

INPUT: Fetch value of pIC50 on Bromodomain-containing protein 4 (Homo sapiens) for `CC(=O)Nc1cc(-c2cn(C)c(=O)c3cc(CN4CCN(S(C)(=O)=O)C[C@H]4C)oc23)ccn1` .
OUTPUT: ≥ 7.00
